Assay: Ratio of drug level in brain to plasma in Sprague-Dawley rat plasma at 10 mg/kg, po after 2 hrs
Format: ADME, organism-based
Parameters: dose 10 mg/kg, route oral
measurement.name: Kp at 2 h

O=c1cc(OCc2ccccc2)ccn1-c1ccc(OCCN2CCCCC2)cc1
3.8

(P) O=c1cc(OCc2ccc(Cl)cc2)ccn1-c1ccc(OCCN2CCCC2)cc1
(Q) O=c1cc(OCc2ccc(F)cc2)ccn1-c1ccc(OCCN2CCCC2)cc1
Query: Of the two listed items, P and Q , which carries the larger Kp at 2 h figure? Answer by stating the label of the chosen item.
Reply: P

----------
Heads up, these compounds all have pIC50 values measured for Voltage-gated inwardly rectifying potassium channel KCNH2 (Homo sapiens, UniProt Q12809).
Keep in mind that pIC50 stands for -log10 of concentration in molar terms.

CCN(CC)CCN(C)c1ccc(-n2ccc(OCc3ccccc3)cc2=O)cc1
5.77
CCN(CC)CCOc1ccc(-n2ccc(OCc3ccccc3)cc2=O)cc1
5.01

Query: State, in one line, measured pIC50 of O=c1cc(OCc2ccccc2F)ccn1-c1ccc(OCCN2CCCC2)cc1
Reply: 5.37

----------
Target: Melanin-concentrating hormone receptor 1 (Homo sapiens, UniProt Q99705)
Sequence (Q99705 whole entry): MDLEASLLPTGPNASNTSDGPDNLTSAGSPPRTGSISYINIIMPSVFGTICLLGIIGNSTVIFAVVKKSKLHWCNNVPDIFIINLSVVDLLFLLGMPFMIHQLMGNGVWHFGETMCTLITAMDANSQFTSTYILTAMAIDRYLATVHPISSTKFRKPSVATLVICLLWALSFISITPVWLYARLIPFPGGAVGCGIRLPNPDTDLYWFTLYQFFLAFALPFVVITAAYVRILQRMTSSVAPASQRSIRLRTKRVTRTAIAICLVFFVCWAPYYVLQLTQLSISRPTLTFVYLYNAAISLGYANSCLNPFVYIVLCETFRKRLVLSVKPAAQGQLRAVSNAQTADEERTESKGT
Test: Displacement of [125I]MCH from human MCHR1 expressed in CHO cells by competition binding assay
Type: cell-based
pIC50: −log10 of the molar value.
measurement.name: pIC50

CC(CN(C)C)Oc1ccc(-n2ccc(OCc3ccccc3)cc2=O)cc1 (stereo unspecified)
7.29
O=c1cc(OCCc2ccc(F)cc2)ccn1-c1ccc(OCCN2CCCC2)cc1
6.19
CN(C)CC(C)(C)Oc1ccc(-n2ccc(OCc3ccccc3)cc2=O)cc1
6.74
O=c1cc(OCCOc2ccc(F)cc2)ccn1-c1ccc(OCCN2CCCC2)cc1
6.82

(1) O=c1cc(OCc2ccccc2)ccn1-c1ccc(OCCN2CCOCC2)cc1
(2) CC(C)N(CCOc1ccc(-n2ccc(OCc3ccccc3)cc2=O)cc1)C(C)C
Query: Of the two listed items, 1 and 2 , which carries the larger pIC50 figure? Answer by stating the label of the chosen item.
Reply: 2
(2: 8.29, 1: 7.62)

(A) O=c1cc(OCc2ccc3ccccc3c2)ccn1-c1ccc(OCCN2CCCC2)cc1
(B) CCN(CC)CCN(C)c1ccc(-n2ccc(OCc3ccccc3)cc2=O)cc1
Query: Of the two listed items, A and B , which carries the larger pIC50 figure? Answer by stating the label of the chosen item.
Reply: A
(A: 8.11, B: 7.80)

(P) O=c1cc(OCc2cccc(F)c2)ccn1-c1ccc(OCCN2CCCC2)cc1
(Q) O=c1cc(OCc2ccc(-c3ccccc3)cc2)ccn1-c1ccc(OCCN2CCCC2)cc1
Query: Of the two listed items, P and Q , which carries the larger pIC50 figure? Answer by stating the label of the chosen item.
Reply: P

----------
Biological target: Melanin-concentrating hormone receptor 1 (Homo sapiens)
Test: Antagonist activity at human MCHR1 expressed in CHO cells assessed as inhibition of MCH-induced intracellular calcium release by FLIPR assay
Type: functional, cell-based
measurement.name: IC50 (nM)

Worked set:
O=c1cc(OCc2ccc(F)cc2)ccn1-c1ccc(OCCN2CCCC2)cc1
23
O=c1cc(OCc2ccccc2)ccn1-c1ccc(OCCN2CCCCC2)cc1
19
O=c1cc(OCc2ccccc2F)ccn1-c1ccc(OCCN2CCCC2)cc1
30
CN1CCCC1COc1ccc(-n2ccc(OCc3ccccc3)cc2=O)cc1 (stereo not drawn)
23
CC(C)N(CCOc1ccc(-n2ccc(OCc3ccccc3)cc2=O)cc1)C(C)C
22

(P) CN(C)CCOc1ccc(-n2ccc(OCc3ccccc3)cc2=O)cc1
(Q) O=c1cc(OCc2ccccc2)ccn1-c1ccc(OCCN2CCOCC2)cc1
(R) O=c1cc(OCc2ccc(C(F)(F)F)cc2)ccn1-c1ccc(OCCN2CCCC2)cc1
(S) O=c1cc(OCc2ccc3ccccc3c2)ccn1-c1ccc(OCCN2CCCC2)cc1
(T) COc1ccc(COc2ccn(-c3ccc(OCCN4CCCC4)cc3)c(=O)c2)cc1
Query: Please list the entries, largest IC50 first. Answer by naming the labels in the order asked.
Reply: S, R, Q, P, T

Value source: ChEMBL document CHEMBL1641472
